Origin of measurements: ChEMBL document CHEMBL3576816

- System: Dengue virus
- protocol.details: Antiviral activity against Dengue virus infected in BHK pD2-hRucPac-2ATG cells assessed as inhibition of viral replication at 10 uM after 3 days by luciferase reporter gene assay relative to control
- Type: functional
- study.conditions: 72 h
I'd appreciate it if you could supply inhibition at 10 µM values for the items below.
Entry rule: numbers only, all in %.

Ask: Field request: inhibition at 10 µM | item: Cc1cn([C@H]2C[C@H](N=[N+]=[N-])[C@@H](CO)O2)c(=O)[nH]c1=O [ZIDOVUDINE]
Reply: 0

Ask: // next record Cc1cn([C@H]2C[C@H](N3C(=O)CSC3c3ccccc3)[C@@H](CO)O2)c(=O)[nH]c1=O (mixture of isomers)
Reply: 0

Ask: // next record COc1ccc2cc(-c3cn([C@H]4C[C@H](n5cc(C)c(=O)[nH]c5=O)O[C@@H]4CO[Si](C)(C)C(C)(C)C)nn3)ccc2c1
Reply: 57

Ask: // next record Cc1cn([C@H]2C[C@H](n3cc(-c4cc5ccccc5c5ccccc45)nn3)[C@@H](CO[Si](C)(C)C(C)(C)C)O2)c(=O)[nH]c1=O
Reply: 77

---

- protocol.details: Cytotoxicity against BHK cells infected with West Nile virus replicon assessed as cell viability after 3 days by CellTiter 96 aqueous one solution cell proliferation assay
- Type: cell-based, Mesocricetus auratus
- study.conditions: hamster, 72 h
I'd appreciate it if you could supply CC50 values for the items below.

Ask: Field request: CC50 | item: Cc1cn([C@H]2C[C@H](N3C(=O)CSC3c3c4ccccc4cc4ccccc34)[C@@H](CO[Si](C)(C)C(C)(C)C)O2)c(=O)[nH]c1=O (mixture of isomers)
Reply: 27 µM

Ask: // next record Cc1cn([C@H]2C[C@H](n3nncc3-c3ccccc3)[C@@H](CO[Si](C)(C)C(C)(C)C)O2)c(=O)[nH]c1=O
Reply: 32 µM

Ask: // next record Cc1cn([C@H]2C[C@H](N3C(=O)CSC3c3ccc4[nH]ccc4c3)[C@@H](CO[Si](C)(C)C(C)(C)C)O2)c(=O)[nH]c1=O (mixture of isomers)
Reply: 15 µM

Ask: // next record Cc1cn([C@H]2C[C@H](NC(=O)CCCCc3ccc(F)cc3)[C@@H](CO[Si](C)(C)C(C)(C)C)O2)c(=O)[nH]c1=O
Reply: 23 µM

Ask: // next record Cc1cn([C@H]2C[C@H](NC(=O)NC34CC5CC(CC(C5)C3)C4)[C@@H](CO[Si](C)(C)C(C)(C)C)O2)c(=O)[nH]c1=O
Reply: 16 µM

Ask: // next record Cc1cn([C@H]2C[C@H](NS(=O)(=O)c3ccc4ccccc4c3)[C@@H](CO[Si](C)(C)C(C)(C)C)O2)c(=O)[nH]c1=O
Reply: 12 µM

Ask: // next record COc1ccc2cc(-c3cnnn3[C@H]3C[C@H](n4cc(C)c(=O)[nH]c4=O)O[C@@H]3CO[Si](C)(C)C(C)(C)C)ccc2c1
Reply: 13 µM

Ask: // next record Cc1cn([C@H]2C[C@H](NC(=O)C(c3ccccc3)(c3ccccc3)c3ccccc3)[C@@H](CO[Si](C)(C)C(C)(C)C)O2)c(=O)[nH]c1=O
Reply: 15 µM

Ask: // next record Cc1cn([C@H]2C[C@H](NC(=O)c3cccc4ccccc34)[C@@H](CO[Si](C)(C)C(C)(C)C)O2)c(=O)[nH]c1=O
Reply: > 200 µM

Ask: // next record COc1ccc2cc(-c3cn([C@H]4C[C@H](n5cc(C)c(=O)[nH]c5=O)O[C@@H]4CO[Si](C)(C)C(C)(C)C)nn3)ccc2c1
Reply: > 200 µM

Ask: // next record Cc1cn([C@H]2C[C@H](n3nncc3C3CCCCC3)[C@@H](CO[Si](C)(C)C(C)(C)C)O2)c(=O)[nH]c1=O
Reply: 24 µM

---

- System: Dengue virus
- protocol.details: Antiviral activity against Dengue virus infected in BHK pD2-hRucPac-2ATG cells assessed as inhibition of viral replication at 10 uM after 3 days by luciferase reporter gene assay relative to control
- Format: functional
- study.conditions: 72 h
measured.quantity: inhibition at 10 µM

Ask: Field request: inhibition at 10 µM | item: Cc1cn([C@H]2C[C@H](NC(=O)C(c3ccccc3)(c3ccccc3)c3ccccc3)[C@@H](CO)O2)c(=O)[nH]c1=O
Reply: 16%

Ask: // next record Cc1cn([C@H]2C[C@H](n3nncc3-c3ccc(Oc4ccccc4)cc3)[C@@H](CO)O2)c(=O)[nH]c1=O
Reply: 0%

Ask: // next record Cc1cn([C@H]2C[C@H](NC(=O)c3c[nH]c4ccccc34)[C@@H](CO[Si](C)(C)C(C)(C)C)O2)c(=O)[nH]c1=O
Reply: 90%

Ask: // next record Cc1cn([C@H]2C[C@H](n3nncc3C3CCCCC3)[C@@H](CO[Si](C)(C)C(C)(C)C)O2)c(=O)[nH]c1=O
Reply: 75%

Ask: // next record Cc1cn([C@H]2C[C@H](NC(=O)c3ccc4ccccc4c3)[C@@H](CO)O2)c(=O)[nH]c1=O
Reply: 45%

Ask: // next record Cc1cn([C@H]2C[C@H](n3nncc3-c3cccc4ccccc34)[C@@H](CO[Si](C)(C)C(C)(C)C)O2)c(=O)[nH]c1=O
Reply: 99%

Ask: // next record Cc1cn([C@H]2C[C@H](N3C(=O)CSC3c3ccc4[nH]ccc4c3)[C@@H](CO[Si](C)(C)C(C)(C)C)O2)c(=O)[nH]c1=O (mixture of isomers)
Reply: 49%

Ask: // next record Cc1cn([C@H]2C[C@H](NC(=O)c3c4ccccc4cc4ccccc34)[C@@H](CO)O2)c(=O)[nH]c1=O
Reply: 0%

Ask: // next record Cc1cn([C@H]2C[C@H](n3nncc3-c3cc4ccccc4c4ccccc34)[C@@H](CO)O2)c(=O)[nH]c1=O
Reply: 0%

Ask: // next record Cc1cn([C@H]2C[C@H](NC(=O)c3cccc4ccccc34)[C@@H](CO)O2)c(=O)[nH]c1=O
Reply: 15%

Ask: // next record COc1ccc2cc(-c3cnnn3[C@H]3C[C@H](n4cc(C)c(=O)[nH]c4=O)O[C@@H]3CO[Si](c3ccccc3)(c3ccccc3)C(C)(C)C)ccc2c1
Reply: 100%

Ask: // next record COc1ccc2cc(C(=O)N[C@H]3C[C@H](n4cc(C)c(=O)[nH]c4=O)O[C@@H]3CO[Si](C)(C)C(C)(C)C)ccc2c1
Reply: 92%

Ask: // next record Cc1cn([C@H]2C[C@H](N3C(=O)CSC3c3c4ccccc4cc4ccccc34)[C@@H](CO)O2)c(=O)[nH]c1=O (mixture of isomers)
Reply: 0%

Ask: // next record Cc1cn([C@H]2C[C@H](n3cc(-c4ccc(-c5ccccc5)cc4)nn3)[C@@H](CO)O2)c(=O)[nH]c1=O
Reply: 10%

---

- Tested on: Dengue virus
- protocol.details: Antiviral activity against Dengue virus infected in BHK pD2-hRucPac-2ATG cells assessed as inhibition of viral replication at 10 uM after 3 days by luciferase reporter gene assay relative to control
- Format: functional
- study.conditions: 72 h
Mark n for inhibition at 10 µM values under 5%, and y for everything at or above.

Ask: Is inhibition at 10 µM for Cc1cn([C@H]2C[C@H](n3nncc3COc3ccccc3)[C@@H](CO)O2)c(=O)[nH]c1=O at or above 5%?
Reply: n

Ask: // next record COc1ccc2cc(-c3cnnn3[C@H]3C[C@H](n4cc(C)c(=O)[nH]c4=O)O[C@@H]3COC(C)=O)ccc2c1
Reply: n

Ask: // next record COc1ccc2cc(-c3cnnn3[C@H]3C[C@H](n4cc(C)c(=O)[nH]c4=O)O[C@@H]3CO)ccc2c1
Reply: n

Ask: // next record COc1ccc2cc(-c3cnnn3[C@H]3C[C@H](n4cc(C)c(=O)[nH]c4=O)O[C@@H]3COC3CCCCO3)ccc2c1 (stereo partly drawn)
Reply: y

Ask: // next record Cc1cn([C@H]2C[C@H](n3nncc3-c3ccc(Oc4ccccc4)cc3)[C@@H](CO[Si](C)(C)C(C)(C)C)O2)c(=O)[nH]c1=O
Reply: y

Ask: // next record Cc1cn([C@H]2C[C@H](n3nncc3C3CC3)[C@@H](CO)O2)c(=O)[nH]c1=O
Reply: n

Ask: // next record Cc1cn([C@H]2C[C@H](NC(=O)c3c4ccccc4cc4ccccc34)[C@@H](CO[Si](C)(C)C(C)(C)C)O2)c(=O)[nH]c1=O
Reply: y

Ask: // next record Cc1cn([C@H]2C[C@H](N)[C@@H](CO[Si](C)(C)C(C)(C)C)O2)c(=O)[nH]c1=O
Reply: n

---

- Test system: Dengue virus
- protocol.details: Antiviral activity against Dengue virus infected in BHK pD2-hRucPac-2ATG cells assessed as inhibition of viral replication at 10 uM after 3 days by luciferase reporter gene assay relative to control
- Format: functional
- study.conditions: 72 h
I'd appreciate it if you could supply inhibition at 10 µM values for the items below.
Entry rule: numbers only, all in %.

Ask: Field request: inhibition at 10 µM | item: Cc1cn([C@H]2C[C@H](n3nncc3-c3cccc4ccccc34)[C@@H](CO)O2)c(=O)[nH]c1=O
Reply: 0

Ask: // next record COc1ccc2cc(-c3cnnn3[C@H]3C[C@H](n4cc(C)c(=O)[nH]c4=O)O[C@@H]3CO[Si](C)(C)C(C)(C)C)ccc2c1
Reply: 85

Ask: // next record Cc1cn([C@H]2C[C@H](N=[N+]=[N-])[C@@H](CO[Si](C)(C)C(C)(C)C)O2)c(=O)[nH]c1=O
Reply: 3.6

Ask: // next record Cc1cn([C@H]2C[C@H](NC(=O)c3ccc4ccccc4c3)[C@@H](CO[Si](C)(C)C(C)(C)C)O2)c(=O)[nH]c1=O
Reply: 98
